Can you tell me pIC50 for the items I'm about to list?
measured.on: Recombinant human integrin αVβ8 (Homo sapiens, UniProt P06756+P26012)
Sequence (P06756 31-992 limits assumed): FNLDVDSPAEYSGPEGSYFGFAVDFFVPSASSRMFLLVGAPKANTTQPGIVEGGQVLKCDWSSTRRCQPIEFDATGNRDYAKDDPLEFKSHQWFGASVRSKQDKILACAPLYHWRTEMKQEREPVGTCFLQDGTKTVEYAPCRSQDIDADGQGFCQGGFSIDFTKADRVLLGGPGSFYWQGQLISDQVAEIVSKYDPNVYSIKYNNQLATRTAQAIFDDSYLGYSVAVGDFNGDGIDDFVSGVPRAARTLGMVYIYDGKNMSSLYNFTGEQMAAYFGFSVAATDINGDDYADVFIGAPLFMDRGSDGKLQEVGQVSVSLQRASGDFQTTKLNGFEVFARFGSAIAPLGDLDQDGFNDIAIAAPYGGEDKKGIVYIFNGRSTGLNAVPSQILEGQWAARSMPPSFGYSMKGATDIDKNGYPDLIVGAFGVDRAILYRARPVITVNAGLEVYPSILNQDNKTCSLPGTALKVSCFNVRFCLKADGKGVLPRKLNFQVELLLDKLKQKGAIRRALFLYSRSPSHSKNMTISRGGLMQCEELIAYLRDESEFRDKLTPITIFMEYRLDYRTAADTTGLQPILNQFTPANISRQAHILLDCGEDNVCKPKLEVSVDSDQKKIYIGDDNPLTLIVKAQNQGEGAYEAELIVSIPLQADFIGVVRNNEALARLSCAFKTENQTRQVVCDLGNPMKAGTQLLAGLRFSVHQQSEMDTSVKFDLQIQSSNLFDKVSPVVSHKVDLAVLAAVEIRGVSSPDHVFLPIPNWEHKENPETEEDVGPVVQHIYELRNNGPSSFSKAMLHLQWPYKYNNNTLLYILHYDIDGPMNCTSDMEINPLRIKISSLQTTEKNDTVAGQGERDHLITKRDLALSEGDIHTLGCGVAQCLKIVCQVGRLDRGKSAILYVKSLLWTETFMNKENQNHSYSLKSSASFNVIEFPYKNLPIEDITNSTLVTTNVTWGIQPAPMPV
Sequence (P26012 43-684 limits assumed): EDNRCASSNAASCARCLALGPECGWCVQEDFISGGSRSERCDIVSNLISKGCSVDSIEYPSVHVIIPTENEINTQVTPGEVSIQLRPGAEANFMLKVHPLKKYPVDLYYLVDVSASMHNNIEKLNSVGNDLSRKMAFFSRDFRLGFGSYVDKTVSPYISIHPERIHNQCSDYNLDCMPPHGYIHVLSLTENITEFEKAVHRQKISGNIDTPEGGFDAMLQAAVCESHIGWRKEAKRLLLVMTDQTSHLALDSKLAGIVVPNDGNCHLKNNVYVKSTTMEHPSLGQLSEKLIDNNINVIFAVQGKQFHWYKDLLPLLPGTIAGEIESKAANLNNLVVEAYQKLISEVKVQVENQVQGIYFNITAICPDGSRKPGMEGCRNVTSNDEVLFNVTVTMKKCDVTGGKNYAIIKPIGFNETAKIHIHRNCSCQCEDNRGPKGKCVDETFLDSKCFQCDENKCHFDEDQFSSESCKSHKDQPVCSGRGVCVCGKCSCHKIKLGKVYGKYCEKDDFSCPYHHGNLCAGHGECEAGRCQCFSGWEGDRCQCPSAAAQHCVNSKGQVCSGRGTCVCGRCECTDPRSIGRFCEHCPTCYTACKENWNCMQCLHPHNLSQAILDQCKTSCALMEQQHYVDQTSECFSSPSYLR
assay.explanation: Solid Phase Receptor Assay for αVβ8 function
experimental.conditions: plate-bound human LAP; read-out: αVβ8 SPRA IC50
Structures can show the parent of a compound that is named as a salt.
Interpret pIC50 as the negative base-10 log of the concentration measured in mol/L.

Query: pIC50; subject: Cn1nc(CC(CC(=O)O)c2cc(C(C)(C)C)cc(C3(C(F)F)CC3)c2)cc1OCCc1ccc2c(n1)NCCC2 (stereo not shown)
7.82

Now give it for CC(C)(C)c1cc(C(CC(=O)O)Cc2cc(OCCc3ccc4c(n3)NCCC4)n(CC(F)(F)F)n2)cc(C(C)(C)C)c1 (stereo not shown) [Example 40, trifluoroacetate] too.
7.52

Also need COCC1(c2cc(C(CC(=O)O)Cc3cc(OCCc4ccc5c(n4)NCCC5)n(C)n3)cc(C(C)(C)C)c2)CCOCC1 (stereo not shown) , thanks.
7.57

Please give the result for COc1cc(C(CC(=O)O)Cc2cc(OCCc3ccc4c(n3)NCCC4)n(C)n2)cc(C23CC4CC(CC(C4)C2)C3)c1OC (stereo not shown) too.
6.77

Then this compound: Cn1nc(C[C@@H](CC(=O)O)c2cc3c(c(C(C)(C)C)c2)OCO3)cc1OCCc1ccc2c(n1)NCCC2
7.47

Can you handle Cc1cc(C)n(-c2cccc(C(CC(=O)O)Cc3csc(CCc4ccc5c(n4)NCCC5)n3)c2)n1 (stereo not shown) next?
5.57

Same again, this time with COCC1(c2cc(C(CC(=O)O)Cc3csc(CCCc4ccc5c(n4)NCCC5)n3)cc(C(C)(C)C)c2)CCOCC1 (stereo not shown)
7.85

====

measured.on: Recombinant human integrin αVβ8 (Homo sapiens, UniProt P06756+P26012)
assay.explanation: Solid Phase Receptor Assay for αVβ8 function
experimental.conditions: plate-bound human LAP; read-out: αVβ8 SPRA IC50
Structures can show the parent of a compound that is named as a salt.
I'd appreciate it if you could supply IC50 values for the items below.
API: value field is a number in nM; no unit string.

Request the reported IC50 associated with Cn1nc(CC(CC(=O)O)c2cc(C(C)(C)C)cc(C(C)(C)C#N)c2)cc1OCCc1ccc2c(n1)NCCC2 (centres unmarked)
8

Another: CC(C)(C)c1cc(C(CC(=O)O)Cc2csc(CCCc3ccc4c(n3)NCCC4)n2)cc(C(C)(C)C)c1 (centres unmarked)
55

Follow-up item: COc1ccc(C2=CCOCC2)cc1C(CC(=O)O)Cc1cc(OCCc2ccc3c(n2)NCCC3)n(C)n1 (centres unmarked)
41

And the next one, Cn1nc(CC(CC(=O)O)c2cc(C(C)(C)C#N)cc(C(C)(C)C#N)c2)cc1OCCc1ccc2c(n1)NCCC2 (centres unmarked) [Example 41, trifluoroacetate] ?
1

Then this molecule: CC(C)c1cc(C(C)C)cc(C(CC(=O)O)Cc2cc(OCCc3ccc4c(n3)NCCC4)n(C)n2)c1 (centres unmarked)
18

Please give the result for COc1c(C(CC(=O)O)Cc2cc(OCCc3ccc4c(n3)NCCC4)n(C)n2)cc(C(C)(C)C)cc1C(C)(C)C (centres unmarked) too.
740

# iterate: COCC1(c2ccc(OC)c([C@H](CC(=O)O)Cc3cc(OCCc4ccc5c(n4)NCCC5)n(C)n3)c2)CCOCC1
540

And what about the molecule Cn1nc(CC(CC(=O)O)c2cc(C(C)(C)C)ccc2C#N)cc1OCCc1ccc2c(n1)NCCC2 (centres unmarked) ?
3

Next entry: Cn1nc(CC(CC(=O)O)c2cc(C(C)(C)C)cc(C(C)(C)C(F)(F)F)c2)cc1OCCc1ccc2c(n1)NCCC2 (centres unmarked)
20

Quick one: COc1ccc(C2=CCOCC2)cc1[C@@H](CC(=O)O)Cc1csc(CCCc2ccc3c(n2)NCCC3)n1 [Example 37B, trifluoroacetate]
5600

Moving on to Cn1nc(CC(CC(=O)O)c2cc(Br)cc(S(F)(F)(F)(F)F)c2)cc1OCCc1ccc2c(n1)NCCC2 (centres unmarked)
13

Now try COc1ccc(C2CCOCC2)cc1C(CC(=O)O)Cc1csc(CCCc2ccc3c(n2)NCCC3)n1 (centres unmarked) .
210

Same for COc1c(Br)cc(C(C)(C)C)cc1C(CC(=O)O)Cc1cc(OCCc2ccc3c(n2)NCCC3)n(C)n1 (centres unmarked)
17

Please give the result for COc1ccc(C2(C(F)F)CC2)cc1C(CC(=O)O)Cc1cc(OCCc2ccc3c(n2)NCCC3)n(C)n1 (centres unmarked) too.
140
